- METHOD NOTES: recombinant barcode read abundance after kanamycin selection (control-corrected) (log10(CPM+1)); higher = more efficient recombination; sequences stand for … in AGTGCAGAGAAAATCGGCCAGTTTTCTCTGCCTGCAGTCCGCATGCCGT…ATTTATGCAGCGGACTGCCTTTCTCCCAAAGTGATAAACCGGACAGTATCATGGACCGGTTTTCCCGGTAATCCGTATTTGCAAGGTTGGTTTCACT; site = the 11-nt target
// bucketize recombinant barcode read abundance (log10): low (below 0.1), medium (0.1 to below 0.2), high (0.2 or more)

Lookup: Band assignment needed for GGGAGCCCCTGGGTTCTAACCTGTTGCTGAG [GGGAGCCCTCA_LTGcore_CC_RTGcore_CT] (site GGGAGCCCTCA) (LTG core: CC, RTG core: CT) please.
Found: high

Lookup: Which category does the recorded recombinant barcode read abundance (log10) put AAACATGCTTGGGTTCTAACCTGTTGCCTGC [AAACATGCTAG_LTGcore_CT_RTGcore_GC] (site AAACATGCTAG) (LTG core: CT, RTG core: GC) in?
Found: high

Lookup: State the class of the sequence shown: TAGAGGGCATGGGTTCTAACCTGTTGCGGAG [TAGAGGGCTCC_LTGcore_CA_RTGcore_CT] (site TAGAGGGCTCC) (LTG core: CA, RTG core: CT)
Found: high

Lookup: Consider TCTACCCCTTGGGTTCTAACCTGTTGCTGAC [TCTACCCCTCA_LTGcore_CT_RTGcore_GT] (site TCTACCCCTCA) (LTG core: CT, RTG core: GT) . To which recombinant barcode read abundance (log10) class does it belong?
Found: medium

Lookup: Could you tell me which band AAACACACTTGGGTTCTAACCTGTTGCCTAC [AAACACACTAG_LTGcore_CT_RTGcore_GT] (site AAACACACTAG) (LTG core: CT, RTG core: GT) belongs to?
Found: high

Lookup: For CGGTCCCCTTGGGTTCTAACCTGTTGCCAGC [CGGTCCCCTTG_LTGcore_CT_RTGcore_GC] (site CGGTCCCCTTG) (LTG core: CT, RTG core: GC) , which recombinant barcode read abundance (log10) bin applies?
Found: medium

Lookup: Category lookup for the sequence GAGTCCAAATGGGTTCTAACCTGTTGCGTAG [GAGTCCACTAC_LTGcore_AA_RTGcore_CT] (site GAGTCCACTAC) (LTG core: AA, RTG core: CT)
Found: low

Lookup: Note: place this sequence into its band. Item: GCGGGACATTGGGTTCTAACCTGTTGCCTAT [GCGGGACCTAG_LTGcore_AT_RTGcore_AT] (site GCGGGACCTAG) (LTG core: AT, RTG core: AT)
Found: medium

Lookup: Record TCTACCCTATGGGTTCTAACCTGTTGCTGAG [TCTACCCCTCA_LTGcore_TA_RTGcore_CT] (site TCTACCCCTCA) (LTG core: TA, RTG core: CT) — which class?
Found: low

Lookup: Assign a category based on measured recombinant barcode read abundance (log10) for ATGTCCCTATGGGTTCTAACCTGTTGCTCAG [ATGTCCCCTGA_LTGcore_TA_RTGcore_CT] (site ATGTCCCCTGA) (LTG core: TA, RTG core: CT) and give only the class name.
Found: low

Lookup: Determine which band this sequence sits in: TCTACCCCGTGGGTTCTAACCTGTTGCTGAG [TCTACCCCTCA_LTGcore_CG_RTGcore_CT] (site TCTACCCCTCA) (LTG core: CG, RTG core: CT)
Found: low

Lookup: Form field 'band' for AGGCCTCCTTGGGTTCTAACCTGTTGCCTAA [AGGCCTCCTAG_LTGcore_CT_RTGcore_TT] (site AGGCCTCCTAG) (LTG core: CT, RTG core: TT)
Found: medium

###

- METHOD NOTES: recombinant barcode read abundance after kanamycin selection (control-corrected) (log10(CPM+1)); higher = more efficient recombination; sequences stand for … in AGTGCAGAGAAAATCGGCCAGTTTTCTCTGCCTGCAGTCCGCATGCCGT…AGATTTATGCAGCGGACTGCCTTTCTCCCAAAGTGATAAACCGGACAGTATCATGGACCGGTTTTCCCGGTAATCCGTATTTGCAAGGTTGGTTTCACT; site = the 11-nt target
RECORDED METRIC: recombinant barcode read abundance (log10)
Simply state the number, no unit and no words.

Value of measured recombinant barcode read abundance (log10) for the entry TAGAACTCTTGGGTTCTAACCTGTTGCCC (site TAGAACTCTAG) : 0.296

Entry AGGTCCTCTTGGGTTCTAACCTGTTGCTA (site TGATCCTCTTA) , recombinant barcode read abundance (log10) reported as 0.0783

Recorded recombinant barcode read abundance (log10) (sequence TCACAGCCTTGGGTTCTAACCTGTTGCTG (site TCAGAGCCTCA) ): 0.176

Value of measured recombinant barcode read abundance (log10) for the entry AGCTTTGCTTGGGTTCTAACCTGTTGCCT (site AGCCTTGCTAG) : 0.171

Form: sequence = GAAGAGACTTGGGTTCTAACCTGTTGCCT (site GAAAACACTAG) ; recombinant barcode read abundance (log10) = 0.0941

The sequence identified as GCTAACACTTGGGTTCTAACCTGTTGCCT (site CCTAACACTAG) registered its recombinant barcode read abundance (log10) at 0.153

The recorded recombinant barcode read abundance (log10) for entry TTCATACCTTGGGTTCTAACCTGTTGCTT (site TTCATACCTAA) equals 0.0848

Measured recombinant barcode read abundance (log10) of TCTACATCTTGGGTTCTAACCTGTTGCCT (site TCTACTTCTAG) : 0.0355

So for CGGCGTCCTTGGGTTCTAACCTGTTGCCG (site CGGCGTCCTAG) , the logged recombinant barcode read abundance (log10) turned out to be 0.498

According to the records, this sequence ATCCCACCTTGGGTTCTAACCTGTTGCGG (site ATCCCACCTCC) displays recombinant barcode read abundance (log10) of 1.89

get_value(item= TTGATATCTTGGGTTCTAACCTGTTGCCT (site TTGAGATCTAG) , readout=recombinant barcode read abundance (log10)) returns 0.0244

Given item TCTAACACTTGGGTTCTAACCTGTTGCCT (site TCTAACACTAG) , the value recorded as its recombinant barcode read abundance (log10) is 0.206

In plain terms, GGCGTGCCTTGGGTTCTAACCTGTTGCGT (site GGCGTGCCTAC) has a documented recombinant barcode read abundance (log10) of 2.95

Record summary for AGCTTAGCTTGGGTTCTAACCTGTTGCCC (site AGCTTAGCTAG) : reported recombinant barcode read abundance (log10) = 0.306

// sample GGAGTGACTTGGGTTCTAACCTGTTGCTT (site GGAGTGACTAA) , its recombinant barcode read abundance (log10) was 0.979

The reported recombinant barcode read abundance (log10) of the sequence AGACTCTCTTGGGTTCTAACCTGTTGCCT (site ATACTCTCTAG) was 0.377

Entry GAGCGAGCTTGGGTTCTAACCTGTTGCAG (site GAGCGAGCTCA) ; recombinant barcode read abundance (log10) = 0.578

The sequence identified as GGATTCTCTTGGGTTCTAACCTGTTGCCT (site GGACTCACTAG) registered its recombinant barcode read abundance (log10) at 0.0575

response.value for ACTACTCCTTGGGTTCTAACCTGTTGCGA (site ACTACTCCTTC) (field: recombinant barcode read abundance (log10)) = 0.93

recombinant barcode read abundance (log10) recorded for this sequence, ACCATCACTTGGGTTCTAACCTGTTGCCT (site ACCATCACTAG) , is 0.79

Briefly, recombinant barcode read abundance (log10) measured for GACCGCGCTTGGGTTCTAACCTGTTGCCT (site GACCGCGCTAG) : 1.05

Entry under test: AGGCGCCCTTGGGTTCTAACCTGTTGCAA (site AGGCGCCCTTT) . Its recombinant barcode read abundance (log10) was 0.635

Sure, the documented recombinant barcode read abundance (log10) for TACGCTCCTTGGGTTCTAACCTGTTGCGT (site TACGCTCCTAG) is 0.0936

Lookup result for GGGGTGTCTTGGGTTCTAACCTGTTGCCG (site ATTTAACCTAC) ; measured recombinant barcode read abundance (log10): 0.0514

# recombinant barcode read abundance (log10) of GAAAGTCCTTGGGTTCTAACCTGTTGCCT (site GAAATTCCTAG) = 0.0822

Item: CACACGACTTGGGTTCTAACCTGTTGCTT (site TGGTTACCTCC) | recombinant barcode read abundance (log10): 0.0367

Entry under test: TATTACCCTTGGGTTCTAACCTGTTGCCT (site TATTATCCTAG) . Its recombinant barcode read abundance (log10) was 0.12

Record summary for GTAAACTCTTGGGTTCTAACCTGTTGCCT (site GTCAACTCTAG) : reported recombinant barcode read abundance (log10) = 0.0684

TAAGCTACTTGGGTTCTAACCTGTTGCTG (site TAAGCCTCTCA) yielded recombinant barcode read abundance (log10) of 0.0237
